test system: FT3469 (normal neural stem cell line); assay: surviving fraction (nuclei count normalised to DMSO); higher = more cells surviving (less toxic); conditions: 37 nM; exposure time: 72 h;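 also: nuclei counted by high-content imaging of Hoechst-stained cells in laminin-coated 384-well plates, relative to 0.1% DMSO vehicle wells, with staurosporine as cell-death control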
Counter-ions that a name gives are not always drawn.
Entry flag: Fulfilled if surviving fraction reaches 1; Not fulfilled if it does not.

Observe how each entry below is paired with its result.
Cc1c2ccncc2c(C)c2c1[nH]c1ccccc12	Fulfilled
COC(=O)C1=C(C)NC(C)=C(C(=O)OCC(C)C)C1c1ccccc1[N+](=O)[O-] (stereo not given)	Fulfilled
Nc1ncn(C2OC(CO)C(O)C2O)c(=O)n1 (stereo not given)	Fulfilled

Here is another compound to look at.
Ask | Threshold query (surviving fraction >= 1) on CCCCCCC[N+](CC)(CC)CCCCc1ccc(Cl)cc1 [Clofilium tosylate]
Reply | Not fulfilled
